# SYSTEM TESTED: Ubiquitin carboxyl-terminal hydrolase 1 (Homo sapiens)
# TEST METHOD NOTES: Inhibitors of USP1/UAF1: Pilot qHTS (AID 504865); further: nearly all actives have a fitted effect of over 35% in size
# EXPERIMENTAL CONTEXT: purified USP1/UAF1, Ub-rhodamine cleavage fluorescence; series mostly up to 54.9 µM
Records with an inconclusive call do not appear. Active and inactive are the calls of the source. The call rests on the fitted dose curve; in most records, active means well fitted inhibition curve with a large enough effect; inconclusive means small, poorly fitted or top-dose-only effect; inactive means flat fitted curve, though single readings scatter.
Outcomes: class 1 (active), class 0 (inactive)

>>> class("Cc1ccccc1-c1ccc2ncnc(N3CCNCC3)c2c1")
"class 0"
>>> class("C[N+]1(C)CCC[C@@H](OC(=O)C(O)(c2ccccc2)c2ccccc2)C1")
"class 0"
>>> class("CCNc1ncc2nc(-c3ccccc3)c(=O)n(C)c2n1")
"class 0"
>>> class("Cn1cc(-c2nc3cncnc3n(Cc3ccccc3Cl)c2=O)c2ccccc21")
"class 0"
>>> class("CN(C)c1ccc(-c2nc(NCCc3cnc[nH]3)c3ccccc3n2)cc1")
"class 0"
>>> class("COc1ccc2[nH]cc(CCNc3ccnc(-c4ccc5c(c4)OCO5)n3)c2c1")
"class 0"
>>> class("COc1ccc2[nH]cc(CCNc3cc(-c4ccccc4Cl)ncn3)c2c1")
"class 1"
>>> class("CN(C)C(=O)c1ccc(-c2nc(-n3ccnc3)c3ccccc3n2)cc1")
"class 0"
>>> class("Cc1cnc(CNc2ncnc3ccc(-c4ccc5c(c4)OCO5)cc23)cn1")
"class 0"
>>> class("COc1cccc(-c2ccc3ncnc(NCCN4CCOCC4)c3c2)c1")
"class 0"
>>> class("Cc1cnc(CNc2ncncc2-c2ccc3c(c2)OCO3)cn1")
"class 0"
>>> class("CN(C)c1ncc2nc(-c3cc(F)cc(F)c3)c(=O)n(Cc3ccc(F)cc3)c2n1")
"class 0"

* * *

# SYSTEM TESTED: Dual specificity protein kinase CLK4 (Homo sapiens)
# TEST METHOD NOTES: qHTS Assay for Inhibitors of CDC-like Kinase 4 (ADP-FP Assay) (AID 1795); further: nearly all actives have a fitted effect of over 60% in size
# EXPERIMENTAL CONTEXT: Transcreener ADP fluorescence polarization; series mostly up to 50 µM
Records with an inconclusive call do not appear. The source made the active and inactive calls. The call rests on the fitted dose curve; in most records, active means well fitted inhibition curve with a large enough effect; inconclusive means small, poorly fitted or top-dose-only effect; inactive means flat fitted curve, though single readings scatter.
Outcomes: active, inactive

>>> class("COCCn1c(=O)c(C)nc2cnc(Nc3ccccc3)nc21")
"inactive"
>>> class("c1ccc(CNc2nc(-c3ccc4c(c3)OCO4)nc3ccccc23)cc1")
"inactive"
>>> class("O=c1c(-c2cc(F)cc(F)c2)nc2cnc(N3CCOCC3)nc2n1Cc1ccc(F)cc1")
"inactive"
>>> class("O=c1c(-c2cccc(Cl)c2)nc2cncnc2n1-c1ccccc1")
"inactive"
>>> class("N#CCCn1c(=O)c(-c2cccs2)nc2cnc(N3CCOCC3)nc21")
"inactive"
>>> class("Cc1noc(C)c1-c1nc(Nc2ccc(F)cc2)c2ccccc2n1")
"inactive"
>>> class("Cc1cnc(CNc2ncncc2-c2ccccc2Cl)cn1")
"inactive"
>>> class("CN(C)C(=O)c1ccc(-c2nccc(NCc3cccs3)n2)cc1")
"inactive"
>>> class("COCCn1c(=O)c(-c2ccc(Cl)cc2)nc2cnc(N(C)C)nc21")
"inactive"
>>> class("COc1cccc(-c2nccc(N(C)Cc3ccco3)n2)c1")
"active"
>>> class("COCCn1c(=O)c(-c2cccc(F)c2)nc2cncnc21")
"inactive"
>>> class("COCCn1c(=O)c(-c2ccccc2)nc2cnc(N3CCN(C)CC3)nc21")
"inactive"
>>> class("N#CCCn1c(=O)c(-c2cc(F)cc(F)c2)nc2cnc(N3CCOCC3)nc21")
"inactive"
>>> class("Cc1cnc(CNc2ccnc(-c3ccoc3)n2)cn1")
"inactive"
>>> class("COc1ccccc1CNc1ccnc(-c2c(C)noc2C)n1")
"inactive"
>>> class("COc1cccc(Cn2c(=O)c(-c3ccccc3)nc3cnc(N4CCN(C)CC4)nc32)c1")
"inactive"
>>> class("c1csc(CNc2nc(-c3ccc4c(c3)OCO4)nc3ccccc23)c1")
"inactive"
>>> class("CN1CCN(c2cc(-c3ccccc3Cl)ncn2)CC1")
"inactive"
>>> class("COc1ccc(-c2nc3cnc(N(C)C)nc3n(C3CC3)c2=O)cc1")
"inactive"
>>> class("COc1cccc(Cn2c(=O)c(-c3ccc(Cl)cc3)nc3cncnc32)c1")
"inactive"
>>> class("COc1ncc2ncc(=O)n(C3CC3)c2n1")
"inactive"
>>> class("CN1CCN(c2ncc3nc(CCc4ccccc4)c(=O)n(C)c3n2)CC1")
"inactive"
>>> class("CCNc1ncc2nc(-c3cccs3)c(=O)n(Cc3cccc(OC)c3)c2n1")
"inactive"
>>> class("COc1cccc(Nc2ncc3nc(-c4cn(C)c5ccccc45)c(=O)n(C[C@H]4CCCO4)c3n2)c1")
"inactive"
>>> class("COc1cccc(Cn2c(=O)c(-c3cccs3)nc3cnc(N4CCNCC4)nc32)c1")
"inactive"
>>> class("N#Cc1cccc(-c2nc3cnc(N4CCOCC4)nc3n(Cc3ccc(F)cc3)c2=O)c1")
"inactive"
>>> class("COc1ccc(-c2nc3cnc(N4CCN(C)CC4)nc3n(C)c2=O)cc1")
"inactive"
>>> class("O=c1c(-c2cccs2)nc2cnc(N3CCNCC3)nc2n1C1CC1")
"inactive"
>>> class("COc1cccc(Cn2c(=O)c(-c3cc(F)cc(F)c3)nc3cnc(N4CCOCC4)nc32)c1")
"inactive"
>>> class("O=c1c(-c2ccc(Cl)cc2)nc2cnc(Nc3ccccc3)nc2n1C[C@H]1CCCO1")
"inactive"
>>> class("COc1ncc2nc(-c3ccc(Cl)cc3)c(=O)n(C)c2n1")
"inactive"

* * *

# SYSTEM TESTED: Ubiquitin carboxyl-terminal hydrolase 1 (Homo sapiens) (UniProt O94782)
# Sequence (O94782 whole entry, looked up): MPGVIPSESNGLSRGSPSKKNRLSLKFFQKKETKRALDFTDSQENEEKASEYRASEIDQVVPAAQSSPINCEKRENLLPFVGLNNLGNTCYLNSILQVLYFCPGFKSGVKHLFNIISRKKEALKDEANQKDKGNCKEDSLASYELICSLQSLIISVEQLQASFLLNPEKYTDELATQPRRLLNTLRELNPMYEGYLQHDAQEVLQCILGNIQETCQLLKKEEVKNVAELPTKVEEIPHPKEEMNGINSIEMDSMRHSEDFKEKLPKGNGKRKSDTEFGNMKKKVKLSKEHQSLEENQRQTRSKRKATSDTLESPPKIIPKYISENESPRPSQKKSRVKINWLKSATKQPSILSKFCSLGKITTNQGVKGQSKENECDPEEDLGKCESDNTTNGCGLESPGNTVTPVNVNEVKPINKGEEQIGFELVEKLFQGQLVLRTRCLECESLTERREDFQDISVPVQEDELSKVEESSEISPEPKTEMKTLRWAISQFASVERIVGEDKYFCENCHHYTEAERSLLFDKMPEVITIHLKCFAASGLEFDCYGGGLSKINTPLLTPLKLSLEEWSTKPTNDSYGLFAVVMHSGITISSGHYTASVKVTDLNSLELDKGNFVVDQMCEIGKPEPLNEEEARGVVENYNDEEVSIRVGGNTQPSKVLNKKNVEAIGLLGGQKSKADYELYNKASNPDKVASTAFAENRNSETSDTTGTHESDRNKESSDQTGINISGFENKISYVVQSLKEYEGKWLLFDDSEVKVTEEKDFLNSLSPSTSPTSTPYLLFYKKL
# TEST METHOD NOTES: Inhibitors of USP1/UAF1: Pilot qHTS (AID 504865); further: nearly all actives have a fitted effect of over 35% in size
# EXPERIMENTAL CONTEXT: purified USP1/UAF1, Ub-rhodamine cleavage fluorescence; series mostly up to 54.9 µM
# Source text: Deubiquitinating enzymes (DUBs) are a class of enzymes that can cleave isopeptide bond formed between the C-terminal carboxylate of ubiquitin and a lysine side-chain amino group on the target protein. Among them, ubiquitin specific proteases (USPs) constitute the largest DUB family. […]
Records with an inconclusive call do not appear. Active and inactive are the calls of the source. Calls follow the shape of the dose curve; as a rule, active = well fitted inhibition curve with a large enough effect; inconclusive = small, poorly fitted or top-dose-only effect; inactive = flat fitted curve, though single readings scatter.
Outcomes: active, inactive

>>> class("CC(=O)NCCNc1nc(-c2ccccc2CN(C)C)nc2ccccc12")
"inactive"
>>> class("CN1CCN(c2ncc3nc(-c4cn(C)c5ccccc45)c(=O)n(CCc4ccccc4)c3n2)CC1")
"inactive"
>>> class("COc1ccc(-n2c(=O)c(-c3ccc(F)cc3)nc3cncnc32)cc1")
"inactive"
>>> class("COc1cccc(-c2nccc(NCc3cnc(C)cn3)n2)c1")
"inactive"
>>> class("Cc1noc(C)c1-c1nc(NCc2cccs2)c2ccccc2n1")
"active"
>>> class("Cc1cccc(CNc2ccnc(-c3ccccc3CN(C)C)n2)c1")
"inactive"
>>> class("CCNc1ncc2nc(-c3cn(C)c4ccccc34)c(=O)n(C[C@H]3CCCO3)c2n1")
"inactive"
>>> class("CN(C)C(=O)c1ccc(-c2ccc3ncnc(N4CCNCC4)c3c2)cc1")
"inactive"
>>> class("COc1ccccc1CNc1nc(-c2cccnc2)nc2ccccc12")
"inactive"
>>> class("COc1ccccc1CNc1ncnc2ccc(-c3ccoc3)cc12")
"inactive"
>>> class("CN(C)C(=O)c1ccc(-c2ccc3ncnc(NCc4cccnc4)c3c2)cc1")
"inactive"
>>> class("c1cncc(CNc2ccnc(-c3cccnc3)n2)c1")
"inactive"
>>> class("CN1CCN(c2ccnc(-c3ccc(N(C)C)cc3)n2)CC1")
"inactive"
>>> class("N[C@H](Cn1ccc(=O)c(O)c1)C(=O)O")
"inactive"
>>> class("COc1cccc(-c2nc(NCc3cccs3)c3ccccc3n2)c1")
"active"
>>> class("CNc1nc(-c2ccc(C(=O)N(C)C)cc2)nc2ccccc12")
"inactive"
>>> class("CCNc1ncc2nc(-c3cn(C)c4ccccc34)c(=O)n(Cc3cccs3)c2n1")
"inactive"
>>> class("CS(=O)(=O)Nc1cccc(-c2nc(-n3ccnc3)c3ccccc3n2)c1")
"inactive"
>>> class("COc1cccc(-c2nccc(NCCc3c[nH]c4ccc(OC)cc34)n2)c1")
"inactive"
>>> class("COc1ncc2nc(C)c(=O)n(CCc3ccccc3)c2n1")
"inactive"
>>> class("COc1ccc(CNc2nc(-c3cccc(C#N)c3)nc3ccccc23)c(OC)c1")
"inactive"
>>> class("COc1ccc(CNc2ncncc2-c2ccccc2C(F)(F)F)c(OC)c1")
"inactive"
>>> class("CCNc1ncc2nc(-c3cc(F)cc(F)c3)c(=O)n(CCOC)c2n1")
"inactive"
>>> class("N#Cc1cccc(-c2ccc3ncnc(NCc4ccccc4)c3c2)c1")
"active"
>>> class("CC(=O)Oc1c(C)c(C)c2c(c1C)CCC(C)(CCCC(C)CCCC(C)CCCC(C)C)O2 (configuration not stated)")
"inactive"
>>> class("O=c1c(CCc2ccccc2)nc2cnc(N3CCOCC3)nc2n1C1CC1")
"inactive"
>>> class("COCCNc1ncnc2ccc(-c3c(C)noc3C)cc12")
"inactive"
